Source listed as the supplement of paper PMC10724198.

# Tested on: Saccharomyces cerevisiae
# experimentalProtocol: protein stability index of tFT-peptide fusion (C-terminal peptide) (PSI (0-1 scale)); higher = more stable (slower turnover)
# studyConditions: genetic background: wild type; temperature: 30 C
// protein stability index lookup, one value per entry
Keep it simple and answer with nothing but the number.

INSERT INTO assay_data (sequence, valuereported) VALUES
  ('WAPPPPYSPFSL', 0.704);

Query: Query (sequence): KPRFRATPRQTT ; field requested: protein stability index
Reply: 0.713

Query: Query (sequence): RPAPPLFVSSPG ; field requested: protein stability index
Reply: 0.699

Query: Query (sequence): PPPPPRPLPPLP ; field requested: protein stability index
Reply: 0.695

Query: Query (sequence): YPDNRGRGPRQP ; field requested: protein stability index
Reply: 0.686

Query: Query (sequence): YGRLPNWGASTE ; field requested: protein stability index
Reply: 0.714

---

# System: Saccharomyces cerevisiae
# experimentalProtocol: protein stability index of tFT-peptide fusion (C-terminal peptide) (PSI (0-1 scale)); higher = more stable (slower turnover)
# studyConditions: genetic background: wild type; temperature: 30 C
measuredEndpoint: protein stability index
Keep it simple and answer with nothing but the number.

INSERT INTO results (sequence, measurementtarget, valuereported) VALUES
  ('PLQFSLADEFST', 'Saccharomyces cerevisiae', 0.705),
  ('SRPRPPPTPALP', 'Saccharomyces cerevisiae', 0.679),
  ('VFDIQLLDGGGP', 'Saccharomyces cerevisiae', 0.685),
  ('SPLSPPHRHNTT', 'Saccharomyces cerevisiae', 0.701);

Query: # get_value(readout= protein stability index, system= Saccharomyces cerevisiae) for VTSRSFYRVSPL
Reply: 0.68

---

# System: Saccharomyces cerevisiae
# experimentalProtocol: protein stability index of tFT-peptide fusion (C-terminal peptide) (PSI (0-1 scale)); higher = more stable (slower turnover)
# studyConditions: genetic background: wild type; temperature: 30 C
measuredEndpoint: protein stability index
Keep it simple and answer with nothing but the number.

INSERT INTO results (sequence, valuereported) VALUES
  ('VNELYDNETTYV', 0.734);

Query: Query (sequence): IQLPPPYATPPS ; field requested: protein stability index
Reply: 0.645

Query: Query (sequence): SVCLLKSWHERQ ; field requested: protein stability index
Reply: 0.725

Query: Query (sequence): RRARSAGADPRP ; field requested: protein stability index
Reply: 0.684

Query: Query (sequence): FGLPGGVTVVTW ; field requested: protein stability index
Reply: 0.757

Query: Query (sequence): QLENQRGWDRKI ; field requested: protein stability index
Reply: 0.656

---

# Tested on: Saccharomyces cerevisiae
# experimentalProtocol: protein stability index of tFT-peptide fusion (C-terminal peptide) (PSI (0-1 scale)); higher = more stable (slower turnover)
# studyConditions: genetic background: wild type; temperature: 30 C
Rule: protein stability index of 0.7 or more gives 1; anything lower gives 0.

INSERT INTO results (sequence, classassignment) VALUES
  ('ESLLFICAHALV', 0),
  ('GFLVALVSRIGW', 0),
  ('KCVDSREKITMD', 0),
  ('QGCSRHIRTGKK', 0),
  ('LYIPQKRGLSLH', 0),
  ('TIASGCTWSPGH', 0);

Query: Form field: protein stability index at least 0.7? Entry: GPVVAGRLWLWV
Reply: 0

Query: Form field: protein stability index at least 0.7? Entry: GLYCDDSYPRPH
Reply: 0

Query: Form field: protein stability index at least 0.7? Entry: GGILNLCVTSLC
Reply: 0

---

# System: Saccharomyces cerevisiae
# experimentalProtocol: protein stability index of tFT-peptide fusion (C-terminal peptide) (PSI (0-1 scale)); higher = more stable (slower turnover)
# studyConditions: genetic background: wild type; temperature: 30 C
// protein stability index lookup, one value per entry
Keep it simple and answer with nothing but the number.

Query: Query (sequence): RNQNSDRLNFQP [YBR138C C-terminal 12 aa] ; field requested: protein stability index
Reply: 0.675

Query: Query (sequence): VNGGSKKRKAND [RMI1 C-terminal 12 aa] ; field requested: protein stability index
Reply: 0.663

Query: Query (sequence): KAIEYFEEYQCW [FRE2 C-terminal 12 aa] ; field requested: protein stability index
Reply: 0.704

Query: Query (sequence): ILTAEKMRGNGN [RRP4 C-terminal 12 aa] ; field requested: protein stability index
Reply: 0.677

Query: Query (sequence): LSKKDYSIDSIE [TPO3 C-terminal 12 aa] ; field requested: protein stability index
Reply: 0.698

Query: Query (sequence): GNIVSQDLLDLF [APL2 C-terminal 12 aa] ; field requested: protein stability index
Reply: 0.7

Query: Query (sequence): TPLGQTLLDSRR [DAL1 C-terminal 12 aa] ; field requested: protein stability index
Reply: 0.67

Query: Query (sequence): EQAAKYIEYLNL [RAD10 C-terminal 12 aa] ; field requested: protein stability index
Reply: 0.603

Query: Query (sequence): LKPWEGRIYLVK [MAL12 C-terminal 12 aa] ; field requested: protein stability index
Reply: 0.697

Query: Query (sequence): SFCYVSACGRTQ [YFL021C-A C-terminal 12 aa] ; field requested: protein stability index
Reply: 0.709

Query: Query (sequence): TSGFCSLETSAE [YER023C-A C-terminal 12 aa] ; field requested: protein stability index
Reply: 0.735

---

# System: Saccharomyces cerevisiae
# experimentalProtocol: protein stability index of tFT-peptide fusion (C-terminal peptide) (PSI (0-1 scale)); higher = more stable (slower turnover)
# studyConditions: genetic background: wild type; temperature: 30 C
measuredEndpoint: protein stability index
Keep it simple and answer with nothing but the number.

Solved entries (count: 4):
INSERT INTO results (sequence, valuereported) VALUES
  ('RIYDFFQSQNWM [ADA2 C-terminal 12 aa]', 0.706),
  ('SRDYEETEYSVI [SPP381 C-terminal 12 aa]', 0.687),
  ('AGVNSARGVLRI [SFT2 C-terminal 12 aa]', 0.71),
  ('LGQAVVKAINFA [YBR277C C-terminal 12 aa]', 0.702);

Okay, now this sequence:
Query: Query (sequence): HLGDPLWNFSVE [TMA20 C-terminal 12 aa] ; field requested: protein stability index
Reply: 0.707

---

# Test system: Saccharomyces cerevisiae
# experimentalProtocol: protein stability index of tFT-peptide fusion (C-terminal peptide) (PSI (0-1 scale)); higher = more stable (slower turnover)
# studyConditions: genetic background: wild type; temperature: 37 C
measuredEndpoint: protein stability index

Solved entries (count: 2):
INSERT INTO results (sequence, measuredendpoint, valuereported) VALUES
  ('LFLLYVLVSLFV', 'protein stability index', 0.39),
  ('DFVYFPPIPVSS', 'protein stability index', 0.409);

Query: Query (sequence): RVLILCLFFRWS ; field requested: protein stability index
Reply: 0.397

Query: Query (sequence): VGVYVWRGVLWA ; field requested: protein stability index
Reply: 0.397

Query: Query (sequence): VFWVLVSFLFYV ; field requested: protein stability index
Reply: 0.406

---

# System: Saccharomyces cerevisiae
# experimentalProtocol: protein stability index of tFT-peptide fusion (C-terminal peptide) (PSI (0-1 scale)); higher = more stable (slower turnover)
# studyConditions: genetic background: wild type; temperature: 37 C
measuredEndpoint: protein stability index
Keep it simple and answer with nothing but the number.

Solved entries (count: 5):
INSERT INTO assay_data (sequence, measuredendpoint, valuereported) VALUES
  ('ACALRSLPPRPY', 'protein stability index', 0.712),
  ('SGPNASRFYAPI', 'protein stability index', 0.704),
  ('LYFLLGSLVFVF', 'protein stability index', 0.461),
  ('HSPRVLLPLYFR', 'protein stability index', 0.328),
  ('GGWGVFGVWVWM', 'protein stability index', 0.422);

Query: Query (sequence): SFFCTRVLWVFQ ; field requested: protein stability index
Reply: 0.149

Query: Query (sequence): VLPCSLVPLRLH ; field requested: protein stability index
Reply: 0.548

Query: Query (sequence): FCLFFFPSLFFF ; field requested: protein stability index
Reply: 0.443

Query: Query (sequence): SLVIVLPALIFL ; field requested: protein stability index
Reply: 0.522

Query: Query (sequence): HCLLQDVPPTLH ; field requested: protein stability index
Reply: 0.66

Query: Query (sequence): SCGVYVVFVLVE ; field requested: protein stability index
Reply: 0.246

Query: Query (sequence): RAFFLLYCTLWA ; field requested: protein stability index
Reply: 0.24

---

# Tested on: Saccharomyces cerevisiae
# experimentalProtocol: protein stability index of tFT-peptide fusion (C-terminal peptide) (PSI (0-1 scale)); higher = more stable (slower turnover)
# studyConditions: genetic background: doa10 deletion; temperature: 30 C
Rule: protein stability index of 0.3 or more gives T; anything lower gives F.

// below: answered sequences
INSERT INTO results (sequence, classassignment) VALUES
  ('IILGVRQIEVNS', 'T'),
  ('VCVYLVSLPYLA', 'F'),
  ('LLISPFLFLLVC', 'F'),
  ('VSDLYLSLVRVV', 'F');

Query: Form field: protein stability index at least 0.3? Entry: LLCRVSRTRILC
Reply: F

Query: Form field: protein stability index at least 0.3? Entry: ILISVNRVVLYC
Reply: F

Query: Form field: protein stability index at least 0.3? Entry: RGRLKSSYFILF
Reply: T
